target: T1, human 4-1BB (h4-1BB) on transiently transfected CHO cells (human, UniProt Q07011 24-255); assay: flow cytometry, CHO cells transfected with human 4-1BB, antibody at 1 µg/ml
T1 construct: also called TNFRSF9; CD137
reported-property: percentage of cells with FITC signal (%)
Report only the number, with the unit % understood.

# annotated cases, reported percentage of cells with FITC signal shown
| binder | percentage of cells with FITC signal, % |
| --- | --- |
| 45-7E9 (antibody, V domains shown, mouse antibody purified from ascites) VH: QVQLKQSGPGLVQPSQSLSITCTVSGFSLTTYGVHWVRQPPGKGLEWLGVIWSDGNTDYNDAFISRLSITKDNSTSQVFFKMNGLQADDTAIYYCARNSITSVSFDCWGQGTTLTVSS VL: DIVMTQSQKFMSTSVGDRVSVTCKASQNVGTTVAWYQQRPGQSPKALICSASYRYSGVPDRFTGSGSGTDFTLTISNVQSEDLAEYFCQQYNSYPLTFGSGTKLEIK | 58.4 |
| 30-5F9 (antibody, V domains shown, mouse antibody purified from ascites) VH: QVQLKESGPGLVAPSQSLSITCTVSGFSLTTYDISWVRQPPGKGLEWLGVIWTGGGTNYNSSFMSRLSISKDNSKNQVFLKMNSLQVDDTAIYYCERVDYWGQGTTLTVSS VL: DVVMTQTPLSLPVSLGDQASISCRSSQSLVHSNGNTYLHWYLQKPGQSPKLLIYKVSNRFSGVPDRFSGSGSGTAFTFKISRVEAEDLGVYFCSQNTHVPWTFGGGTKLEIK | 56.2 |

Lookup: Please give the measured percentage of cells with FITC signal for this binder: 16-1C4 (antibody, V domains shown, mouse antibody purified from ascites) VH: QGQMQQSGAELVKPGASVKLSCKTSGFTFSSSYINWLKQKPGQSLEWIAWIFAGTGGTYYNQKFTGKAQLTVDTSSGTAYMQFSSLTTEDSAIYYCARHSPRATLFDFWGQGTTLTVSS VL: QIVLSQSPAILSASPGEKVTMTCRASSSVNHMHWYQQRTGFSPKAWIYATSNLASGVPARFSGSGSGTSYSLTISRVEAEDAATYYCQQWSSNPYTFGGGTKLEIK
Found: 69

Source of measurements: patent US20240092922A1
